IC50 by entry:
Molecular target: hTRPV3 (Homo sapiens (Human))
Assay: Whole-cell patch clamp, hTRPV3 Phase 1 / Phase 2 currents
Type: cell-based
Conditions: Phase 1 current; read-out: hTRPV3 (nM) (Phase 1)

molecule	experimental-system	IC50
CCc1ccccc1-c1ccc(N2CC[C@H](Oc3ccc(C)cn3)C2)c(CO)n1	hTRPV3 (Homo sapiens (Human))	> 3200 nM
CCc1ccccc1-c1ccc(N2CC[C@H](Oc3ccc(Cl)cn3)C2)c(CO)n1	hTRPV3 (Homo sapiens (Human))	> 3200 nM
NC(=O)c1cc(-c2ccccc2)ccc1N1CC[C@@H](Oc2ccccn2)C1	hTRPV3 (Homo sapiens (Human))	~835 nM
CC(C)(C)OC(=O)N1CC=C(c2ccc(N3CC[C@H](Oc4ccc(C(F)(F)F)cn4)C3)c(CCO)c2)CC1	hTRPV3 (Homo sapiens (Human))	> 3200 nM
N#Cc1ccccc1N1CCC(Oc2ccc3ccccc3n2)C1=O (centres unmarked)	hTRPV3 (Homo sapiens (Human))	> 3200 nM
COCc1ccccc1Oc1ccc(N2CC[C@H](Oc3ccccn3)C2)c(CCO)c1	hTRPV3 (Homo sapiens (Human))	> 3200 nM
OCCc1cc(C(O)c2ccc(Cl)cc2)ccc1N1CC[C@H](Nc2ccc(F)cn2)C1 (some centres unmarked)	hTRPV3 (Homo sapiens (Human))	> 3200 nM
Cc1ccc(C(=O)c2ccc(N3CC[C@H](Oc4ncccc4F)C3)c(CCO)c2)cc1	hTRPV3 (Homo sapiens (Human))	~2080 nM

---

Molecular target: hTRPV3 (Homo sapiens (Human), UniProt Q8NET8)
Sequence (Q8NET8 whole entry): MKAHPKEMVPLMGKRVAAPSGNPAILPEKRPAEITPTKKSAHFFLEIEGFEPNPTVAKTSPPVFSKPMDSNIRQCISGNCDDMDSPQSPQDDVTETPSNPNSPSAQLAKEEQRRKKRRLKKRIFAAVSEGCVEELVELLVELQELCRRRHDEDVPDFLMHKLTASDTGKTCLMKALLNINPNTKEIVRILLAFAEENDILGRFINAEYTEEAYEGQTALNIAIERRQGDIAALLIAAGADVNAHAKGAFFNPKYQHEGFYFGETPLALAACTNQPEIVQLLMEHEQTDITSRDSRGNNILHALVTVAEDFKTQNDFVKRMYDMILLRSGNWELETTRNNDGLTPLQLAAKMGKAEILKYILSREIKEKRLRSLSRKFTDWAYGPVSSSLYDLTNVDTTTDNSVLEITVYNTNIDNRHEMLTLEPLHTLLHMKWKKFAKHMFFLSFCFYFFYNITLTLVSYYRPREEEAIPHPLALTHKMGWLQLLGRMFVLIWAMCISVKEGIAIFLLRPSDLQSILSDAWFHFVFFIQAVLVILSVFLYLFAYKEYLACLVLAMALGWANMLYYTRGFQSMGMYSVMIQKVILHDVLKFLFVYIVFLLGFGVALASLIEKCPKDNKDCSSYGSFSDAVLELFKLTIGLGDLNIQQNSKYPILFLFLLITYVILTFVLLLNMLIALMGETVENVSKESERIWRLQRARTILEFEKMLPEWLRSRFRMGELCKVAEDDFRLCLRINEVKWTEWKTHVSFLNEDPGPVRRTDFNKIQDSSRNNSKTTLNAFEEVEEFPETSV
Experiment: Whole-cell patch clamp, hTRPV3 Phase 1 / Phase 2 currents
Format: cell-based
Details: Phase 1 current, human TRPV3; read-out: hTRPV3 (nM) Phase 1
IC50 by entry:
measurement-type: IC50 (nM)

compound	measurement-type	units-label	comparison-sign	data-value
Cc1cccc(C(O)c2ccc(C3CCN(C(=O)c4ncccc4Cl)C3)c(CO)c2)c1 (single isomer, unassigned)	IC50	nM	>	3200
CC(C)c1ccccc1Oc1ccc(C2CCN(C(=O)c3ccc(Cl)cn3)C2)c(C(N)=O)c1 (stereo not drawn)	IC50	nM	=	677
COCc1ccccc1-c1ccc(C2CCN(C(=O)c3ccc(Cl)cn3)C2)c(CO)c1 (stereo not drawn)	IC50	nM	=	97.7
CCc1cncnc1Oc1ccc(C2CCN(C(=O)c3ccc(F)cn3)C2)c(CO)c1 (stereo not drawn)	IC50	nM	>	3200
CCc1c(C)cccc1-c1ccc(C2CCN(C(=O)c3ccc(F)cn3)C2)c(CO)c1 (stereo not drawn)	IC50	nM	=	18

---

Target: hTRPV3 (Homo sapiens (Human), UniProt Q8NET8)
Test: Whole-cell patch clamp, hTRPV3 Phase 1 / Phase 2 currents
Type: cell-based
Conditions: Phase 1 current, inward, whole-cell patch clamp; read-out: hTRPV3 Patch P1 Inwd
pIC50: −log10 of the molar value. Where a name gives a salt, the structure may show the parent alone.
measurement-type: pIC50

molecule	experimental-system	data-value
COCc1ccc(C(=O)c2ccc(N3CC[C@H](Oc4ncccc4Cl)C3)c(CO)c2)cc1 [Compound 1-286]	hTRPV3 (Homo sapiens (Human), UniProt Q8NET8)	6.00 to 7.00
CC(C)c1ccccc1-c1ccc(C2CCN(C(=O)c3ncccc3Cl)C2)c(CO)c1 (centres unmarked) [Compound 2-36]	hTRPV3 (Homo sapiens (Human), UniProt Q8NET8)	7.00 to 8.00
Cc1ccc(C(O)c2ccc(N3CC[C@H](Oc4ncccc4Cl)C3)c(CCO)c2)cc1 (some centres unmarked) [Compound 1-310]	hTRPV3 (Homo sapiens (Human), UniProt Q8NET8)	< 6.00
Cc1ccccc1Oc1ccc(CO)c(N2CC[C@H](Oc3ncccc3Cl)C2)c1 [Compound 1-241]	hTRPV3 (Homo sapiens (Human), UniProt Q8NET8)	7.00 to 8.00
O=C(c1ncccc1Cl)N1CCC(c2ccc(C(O)c3ccccc3Cl)cc2CO)C1 (centres unmarked) [Compound 2-11]	hTRPV3 (Homo sapiens (Human), UniProt Q8NET8)	< 6.00
CCc1ccccc1Oc1ccc(N2CC[C@H](Oc3ccc(C#N)cn3)C2)c(CO)c1 [Compound 1-352]	hTRPV3 (Homo sapiens (Human), UniProt Q8NET8)	6.00 to 7.00
CC(C)(C)OC(=O)N1CC=C(c2ccc(N3CC[C@H](Oc4ccc(C(F)(F)F)cn4)C3)c(CCO)c2)CC1 [Compound 1-299]	hTRPV3 (Homo sapiens (Human), UniProt Q8NET8)	< 6.00
CCc1ccccc1-c1ccc(C2CCN(C(=O)c3ccc(F)cn3)C2)c(C(N)=O)c1 (centres unmarked) [Compound 2-34]	hTRPV3 (Homo sapiens (Human), UniProt Q8NET8)	6.00 to 7.00
Cc1ccc(O[C@H]2CCN(c3ccc(-c4ccccc4C)nc3CCO)C2)nc1 [Compound 1-200]	hTRPV3 (Homo sapiens (Human), UniProt Q8NET8)	6.00 to 7.00
CN(C)Cc1ccccc1N1CC[C@@H](Oc2ccc(C(F)(F)F)cn2)C1 [Compound 1-60, hydrochloride]	hTRPV3 (Homo sapiens (Human), UniProt Q8NET8)	< 6.00
CC(=O)c1cc(F)ccc1Oc1ccc(N2CC[C@H](Oc3ccccn3)C2)c(CO)c1 [Compound 1-343]	hTRPV3 (Homo sapiens (Human), UniProt Q8NET8)	6.00 to 7.00
NC(=O)c1cc(-c2ccncc2)ccc1N1CC[C@@H](Oc2ncccc2Cl)C1 [Compound 1-82, hydrochloride]	hTRPV3 (Homo sapiens (Human), UniProt Q8NET8)	< 6.00
CCc1cc(C)ccc1-c1ccc(C2CCN(C(=O)c3ccc(Cl)cn3)C2)c(CO)c1 (centres unmarked) [Compound 2-66]	hTRPV3 (Homo sapiens (Human), UniProt Q8NET8)	7.00 to 8.00
CN(C)C(=O)c1ccccc1-c1ccc(N2CC[C@H](Oc3ccc(C(F)(F)F)cn3)C2)c(CO)c1 [Compound 1-167]	hTRPV3 (Homo sapiens (Human), UniProt Q8NET8)	< 6.00
CCc1ccccc1C(=O)c1ccc(N2CC[C@H](Oc3ncccc3Cl)C2)c(CO)c1 [Compound 1-256]	hTRPV3 (Homo sapiens (Human), UniProt Q8NET8)	7.00 to 8.00
O=C(c1ccc(Cl)cn1)N1CCC(c2ccc(-c3ccccc3C3CC3)cc2CO)C1 (centres unmarked) [Compound 2-56]	hTRPV3 (Homo sapiens (Human), UniProt Q8NET8)	> 8.00
CN(C)Cc1ccccc1N1CC[C@H](Oc2ccc(C(F)(F)F)cn2)C1 [Compound 1-61, hydrochloride]	hTRPV3 (Homo sapiens (Human), UniProt Q8NET8)	< 6.00
Cc1cccc(CN2CC(c3ccc(Oc4ccccc4C(C)C)cc3C(N)=O)CC2=O)n1 (centres unmarked) [Compound 2-97]	hTRPV3 (Homo sapiens (Human), UniProt Q8NET8)	< 6.00
Cc1ccc(C(O)c2ccc(N3CC[C@H](Oc4ncccc4Cl)C3)c(CO)c2)cc1 (some centres unmarked) [Compound 1-287]	hTRPV3 (Homo sapiens (Human), UniProt Q8NET8)	6.00 to 7.00
CCc1ccccc1-c1ccc(CO)c(N2CC[C@H](Oc3ccc(C(F)(F)F)cn3)C2)c1 [Compound 1-227]	hTRPV3 (Homo sapiens (Human), UniProt Q8NET8)	6.00 to 7.00
Cc1ccccc1Oc1ccc(CO)c(N2CC[C@H](Oc3ccc(C(F)(F)F)cn3)C2)c1 [Compound 1-230]	hTRPV3 (Homo sapiens (Human), UniProt Q8NET8)	6.00 to 7.00
OCCc1cc(C(O)c2cccc(Cl)c2)ccc1N1CC[C@H](Nc2ccc(F)cn2)C1 (some centres unmarked) [Compound 1-392]	hTRPV3 (Homo sapiens (Human), UniProt Q8NET8)	< 6.00
O=C(c1ncccc1Cl)N1CCC(c2ccc(-c3ccccc3C3CC3)cc2CO)C1 (centres unmarked) [Compound 2-55]	hTRPV3 (Homo sapiens (Human), UniProt Q8NET8)	7.00 to 8.00
Cc1cccc(C(=O)N2CCC(c3ccc(Oc4ccccc4C(C)C)cc3C(N)=O)C2)n1 (centres unmarked) [Compound 2-33]	hTRPV3 (Homo sapiens (Human), UniProt Q8NET8)	6.00 to 7.00
Cc1ccc(C(=O)N2CCC(c3ccc(-c4ccccc4C(C)C)cc3CO)C2)nc1 (centres unmarked) [Compound 2-79]	hTRPV3 (Homo sapiens (Human), UniProt Q8NET8)	7.00 to 8.00
Cc1ccc(O[C@H]2CCN(c3ccc(-c4ccccc4)nc3CCO)C2)nc1 [Compound 1-215]	hTRPV3 (Homo sapiens (Human), UniProt Q8NET8)	< 6.00
